- assayed-system: Protein kinase C delta type (Homo sapiens)
- Sequence (Q05655 whole entry): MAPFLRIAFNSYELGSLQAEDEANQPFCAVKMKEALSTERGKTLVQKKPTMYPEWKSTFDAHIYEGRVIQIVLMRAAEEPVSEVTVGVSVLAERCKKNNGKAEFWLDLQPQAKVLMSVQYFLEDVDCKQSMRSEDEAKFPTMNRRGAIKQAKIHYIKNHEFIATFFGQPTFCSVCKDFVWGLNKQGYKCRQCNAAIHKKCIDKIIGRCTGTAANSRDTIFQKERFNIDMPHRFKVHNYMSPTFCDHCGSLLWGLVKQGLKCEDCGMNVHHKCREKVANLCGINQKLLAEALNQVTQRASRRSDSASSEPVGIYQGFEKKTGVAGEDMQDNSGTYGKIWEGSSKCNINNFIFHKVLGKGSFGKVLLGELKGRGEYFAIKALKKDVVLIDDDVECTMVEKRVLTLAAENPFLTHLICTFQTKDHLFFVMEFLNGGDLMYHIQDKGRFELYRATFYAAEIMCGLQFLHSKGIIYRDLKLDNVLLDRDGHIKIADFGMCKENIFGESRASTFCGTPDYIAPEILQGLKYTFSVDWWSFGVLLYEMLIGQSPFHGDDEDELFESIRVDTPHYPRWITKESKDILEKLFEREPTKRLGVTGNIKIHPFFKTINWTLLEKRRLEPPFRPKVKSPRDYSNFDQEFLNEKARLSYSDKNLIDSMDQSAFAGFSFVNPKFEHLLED
- measurement-notes: Inhibition of recombinant full length PKC delta (unknown origin) using ERMRPRKR- QGSVRRRV peptide as substrate measured after 15 mins in presence of ATP by spectrophotometric analysis
outcome-measure: log10(Ki) (log10 of the value in nM)
Kindly note that the scale is log10 and the underlying Ki is in nM.

Answered examples (5):
INSERT INTO results (smiles_representation, assay_result) VALUES
  ('NCC1(c2cccc(-c3ccnc4[nH]nc(C(F)(F)F)c34)c2)CCOCC1', 2.26),
  ('CC(C)(C#N)c1cccc(-c2ccnc3[nH]ncc23)n1', 2.38),
  ('Cc1cc(-c2ccnc3[nH]nc(C(F)(F)F)c23)cc(C2(CN)CCC2)c1', 2.13),
  ('NCC1(c2cccc(-c3ccnc4[nH]nc(C(F)(F)F)c34)c2)COC1', 2.59),
  ('Cc1cc(-c2ccnc3[nH]nc(C(F)(F)F)c23)cc(C2(CN)COC2)c1', 2.73);

Okay, here is my list. What is log10(Ki) for each of these?
1. NCC1(c2cccc(-c3ccnc4[nH]nc(C(F)(F)F)c34)c2)CCC1
2. CC(C)(C#N)c1cccc(-c2ccnc3[nH]ccc23)n1
3. CC(C)(C#N)c1cccc(-c2ccnc3[nH]ncc23)c1

1.78
1.08
2.77

====

- measurement-notes: Clearance in iv dosed rat
- Assay type: ADME, organism-based
- test-context: in vivo
// NB: equality with 40 mL/min/kg counts as not satisfied; only clearance strictly below is satisfied

The examples below pair each entry with its known result.
INSERT INTO measurements (compound, classification) VALUES
  ('CC(C)(C#N)c1cccc(-c2ccnc3[nH]ncc23)c1', 'satisfied'),
  ('CCC(C)(CN)c1cccc(-c2ccnc3[nH]nc(C(F)(F)F)c23)c1 (stereo not given)', 'not satisfied'),
  ('CC(C)(C#N)c1cccc(-c2ccnc3[nH]ccc23)n1', 'not satisfied');

In the record for `CC(C)(C#N)c1cccc(-c2ccnc3[nH]ncc23)n1` , is clearance less than 40 mL/min/kg?
satisfied

Lab note: confirm whether the reported clearance for this compound is below 40 mL/min/kg, equality not counting. compound: `NCC1(c2cccc(-c3ccnc4[nH]nc(C(F)(F)F)c34)c2)COC1`
not satisfied

====

- Species: Homo sapiens
- measurement-notes: Selectivity ratio Ki for recombinant full length PKC delta (unknown origin) to Ki for human recombinant full length His-tagged PKC theta
outcome-measure: Ratio Ki

INSERT INTO results (compound, assay_result) VALUES
  ('NCC1(c2cccc(-c3ccnc4[nH]ncc34)c2)CCCCC1', 8),
  ('CCC(C)(CN)c1cccc(-c2ccnc3[nH]nc(Cl)c23)c1 (stereo unspecified)', 22),
  ('CCC(C)(CN)c1cccc(-c2ccnc3[nH]ncc23)c1 (stereo unspecified)', '13 to 24'),
  ('C#CCC(C)(CN)c1cccc(-c2ccnc3[nH]ncc23)c1 (stereo unspecified)', 36),
  ('CCC(C)(CN)c1cccc(-c2ccnc3[nH]nc(C)c23)c1 (stereo unspecified)', '> 16');

Now let's try a different one.
What Ratio Ki value was documented for this compound, `NCC1(c2cccc(-c3ccnc4[nH]ncc34)c2)CCCC1` ?
18

====

Below are molecules with their IC50 as measured on Voltage-gated inwardly rectifying potassium channel KCNH2 (Homo sapiens).
Sequence (Q12809 whole entry): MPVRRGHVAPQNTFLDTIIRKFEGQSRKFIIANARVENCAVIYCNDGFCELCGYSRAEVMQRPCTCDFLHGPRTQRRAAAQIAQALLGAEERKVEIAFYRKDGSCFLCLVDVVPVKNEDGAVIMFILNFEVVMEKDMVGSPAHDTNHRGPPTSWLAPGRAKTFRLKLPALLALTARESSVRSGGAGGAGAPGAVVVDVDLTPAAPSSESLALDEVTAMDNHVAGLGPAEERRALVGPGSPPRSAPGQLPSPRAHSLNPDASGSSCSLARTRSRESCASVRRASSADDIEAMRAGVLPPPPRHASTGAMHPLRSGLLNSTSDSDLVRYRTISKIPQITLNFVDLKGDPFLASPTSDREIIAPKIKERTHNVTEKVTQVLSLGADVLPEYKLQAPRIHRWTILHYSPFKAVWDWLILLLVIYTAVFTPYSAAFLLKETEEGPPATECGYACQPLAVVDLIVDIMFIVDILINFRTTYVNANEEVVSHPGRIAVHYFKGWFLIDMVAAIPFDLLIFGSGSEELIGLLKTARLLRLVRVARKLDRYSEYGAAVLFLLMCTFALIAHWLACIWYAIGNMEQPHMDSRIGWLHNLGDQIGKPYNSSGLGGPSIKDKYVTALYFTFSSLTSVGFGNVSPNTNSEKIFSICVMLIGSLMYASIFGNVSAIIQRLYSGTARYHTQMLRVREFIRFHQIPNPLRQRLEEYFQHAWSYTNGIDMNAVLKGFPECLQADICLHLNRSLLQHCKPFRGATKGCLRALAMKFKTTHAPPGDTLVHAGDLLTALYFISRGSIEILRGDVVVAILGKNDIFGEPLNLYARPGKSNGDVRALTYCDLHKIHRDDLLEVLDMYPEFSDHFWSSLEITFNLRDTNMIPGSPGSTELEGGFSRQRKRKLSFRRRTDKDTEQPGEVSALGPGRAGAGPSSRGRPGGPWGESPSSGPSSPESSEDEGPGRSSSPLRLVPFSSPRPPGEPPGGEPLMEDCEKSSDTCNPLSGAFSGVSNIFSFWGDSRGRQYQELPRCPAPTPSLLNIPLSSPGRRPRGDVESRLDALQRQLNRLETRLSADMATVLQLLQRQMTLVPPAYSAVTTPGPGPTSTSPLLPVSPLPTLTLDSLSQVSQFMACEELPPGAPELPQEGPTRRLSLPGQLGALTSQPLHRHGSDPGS

INSERT INTO assay_data (smiles_representation, assayed_system, outcome_measure, assay_result) VALUES
  ('NCC1(c2cccc(-c3ccnc4[nH]nc(C(F)(F)F)c34)c2)CCOCC1', 'Voltage-gated inwardly rectifying potassium channel KCNH2 (Homo sapiens)', 'IC50', '> 10 µM');

List reported IC50 for each of these molecules:
1. NCC1(c2cccc(-c3ccnc4[nH]nc(C(F)(F)F)c34)c2)COC1
2. Cc1cc(-c2ccnc3[nH]nc(C(F)(F)F)c23)cc(C2(CN)COC2)c1

1. > 10 µM
2. > 10 µM
